Kindly supply the reported growth values for the records listed here.
Tested on: SK-MEL-2 melanoma
assay_overview: NCI-60 one-dose screen, 48 h (100 = growth as untreated, 0 = no growth, -100 = all killed)
test_settings: 10 µM unless noted
The panel holds about 83,000 compounds, 20% with a hit somewhere; the sample as a whole holds those more often.
One number for each entry, in %.

Use the examples below as a reference point.
INSERT INTO measurements (compound, assay_target, unit_name, measurement) VALUES
  ('NC(=O)c1cc(-c2ccc3ncnc(N4CCc5cc(F)c(Cl)cc54)c3c2)cnc1N', 'SK-MEL-2 melanoma', '%', -51.5),
  ('Clc1ccc2c(NCCCn3ccnc3)c3oc4ccccc4c3nc2c1', 'SK-MEL-2 melanoma', '%', 84.9),
  ('CCCCCCNC(=O)Oc1ccc(/C(=C(/C)c2ccccc2)c2ccc(OCCN3CCCCCC3)cc2)cc1', 'SK-MEL-2 melanoma', '%', 95.9),
  ('CC(=O)Oc1ccccc1C(=O)Nc1cc(C(C)C)ccc1C', 'SK-MEL-2 melanoma', '%', -22.9),
  ('Cn1ccnc1C(=O)/C=C/c1ccc(NC(=O)Nc2ccccc2)cc1', 'SK-MEL-2 melanoma', '%', 102);

Here are 3 compounds. What values of growth were reported for them?
1. N#Cc1c(-c2ccc(Cl)cc2)nc(SCc2ccc(F)cc2)nc1N1CCNCC1
2. COc1cc(/C=C/C(=O)c2cc(OC)c(OC)c(OC)c2)ccc1Oc1nc(NCCO)nc(N2CCOCC2)n1
3. COC(=O)C1CN(S(=O)(=O)/N=C2\NC(=O)NC2=C(Cl)Cl)C1

[reply]
1. 111
2. -3.2
3. 108

Each compound below has a reported value. Please supply its growth.
1. Cc1ccc(CNS(=O)(=O)/N=C2\NC(=O)NC2=C(Cl)Cl)cc1
2. O=C(CCCN1C(=O)/C(=C/c2ccccc2F)SC1=S)N1CCOCC1
3. COc1ccc(C(=O)c2cc(C(=O)/C=C/c3c(Cl)cccc3Cl)c3cc(C)ccn23)cc1
4. CCCC(=O)NC(c1cccc(N(C)C)c1)c1cc(C)c2cccnc2c1O (stereo unspecified)
5. Cn1c(SCC(=O)c2cccs2)nc2ccccc2c1=O

[reply]
[28.8, 115, 101, 89.9, 98]

Fill in growth for each of the 4 compounds listed.
1. N#Cc1nc(-c2ccccc2)oc1S(N)(=O)=O
2. COc1cc(OC)c(C2C(Cl)C(=O)N2Nc2ncnc3ccccc23)cc1OC (stereo unspecified)
3. COc1cc2cc(Oc3ccc(NC(=O)c4cccc(C(F)(F)F)c4)cc3)c(C)nc2cc1OCCN1CCCCC1
4. COc1ccc(/C=C2\SC(=Nc3cc(C)on3)NC2=O)cc1

[reply]
[84.9, 121, 74, 115]
